All figures here come from PubChem BioAssay (NCI).

Tested on: ACHN renal
Measurement Notes: NCI tumour cell line growth inhibition, 48 h
The molecules listed here are annotated with their TGI.

The following molecules have reported results that may help.
CC1=NNC(=O)C1C1CC(c2c[nH]c3ccccc23)=NNC1=S (stereo unspecified): > 100 µM
N#Cc1cccc(OCc2nc(N)nc(N)c2-c2ccc(Cl)c(Cl)c2)c1: > 100 µM
O=C1Cc2c([nH]c3c(Cl)cccc23)-c2ccccc2N1: > 100 µM
O=C(NCCCCN(CCCNC(=O)C(F)(F)F)Cc1ccc2ccccc2c1)C(F)(F)F: 38.9 µM
COc1ccc2c(c1)CCN=C2Cc1cc(OC)c(OC)cc1CCCl: > 100 µM
Cc1n[nH]c(=O)n1C1CCCC1: > 100 µM

# input Notebook entry, ACHN renal assay: TGI of NC(=O)C#CC#CC#CCO = ?
# output 2.61 µM

# input Notebook entry, ACHN renal assay: TGI of CC(C)(C)OC(=O)CC(NC(=O)OC(C)(C)C)C(=O)N[C@@H]1CCCC[C@H]1C(=O)OCc1ccccc1 (stereo partly specified) = ?
# output > 100 µM

# input Notebook entry, ACHN renal assay: TGI of C#CCN(Cc1nc2cc(C(F)(F)F)ccc2nc1-c1ccccc1)c1ccc(OC(F)(F)F)cc1 = ?
# output > 100 µM

# input Notebook entry, ACHN renal assay: TGI of O=c1cc(-c2ccc(O)cc2)n(C2CC2)c2ccccc12 = ?
# output 5.99 µM

# input Notebook entry, ACHN renal assay: TGI of O=S(=O)(O)CCCC1S(=O)(=O)OCCOS1(=O)=O = ?
# output > 100 µM

# input Notebook entry, ACHN renal assay: TGI of O=C(Nc1ccc(F)cc1)Nc1ccccc1CNc1nc(Nc2ccc(OCCN3CCCC3)cc2)ncc1Cl = ?
# output 3.15 µM

# input Notebook entry, ACHN renal assay: TGI of COC(=O)C1=C(C(=O)OC)C(Cc2ccccc2)(OO)OC1=O (stereo unspecified) = ?
# output 9.36 µM

# input Notebook entry, ACHN renal assay: TGI of c1ccc2c(c1)Nc1ccccc1[P+]21c2ccccc2Nc2ccccc21 = ?
# output 9.29 µM

# input Notebook entry, ACHN renal assay: TGI of COC(=O)C(C)(C)OCc1ccc(C2NC(=O)N(c3cccc(Cl)c3)C(=O)N2c2cccc(Cl)c2)cc1 (stereo unspecified) = ?
# output > 100 µM

# input Notebook entry, ACHN renal assay: TGI of N/C(=C\C(=O)n1nc(-c2ccccc2)cc1N)c1ccccc1 = ?
# output > 100 µM

# input Notebook entry, ACHN renal assay: TGI of CC(C)CCC[C@@H](C)[C@H]1CC[C@H]2[C@@H]3CC[C@H]4C[C@H](N)CC[C@]4(C)[C@H]3CC[C@]12C = ?
# output 36.2 µM

# input Notebook entry, ACHN renal assay: TGI of CC(=O)CCc1ccc(OC2OC(COC(=O)c3cc(O)c(O)c(O)c3)C(O)C(O)C2OC(=O)/C=C/c2ccccc2)cc1 (stereo unspecified) = ?
# output 75.4 µM

###

Tested on: TK-10 renal
Measurement Notes: NCI tumour cell line growth inhibition, 48 h
Assay Endpoint: GI50

The following compounds have reported results that may help.
CC(C)[C@H]1CC[C@H]2[C@@H](CC[C@H]3[C@](C)(CN)CCC[C@]23C)C1: 2.19 µM
CN(c1cc2ncc(=O)[nH]c2cc1NC(N)=NCc1ccc(Cl)cc1)C1CCCCC1: 7.44 µM
CCOc1ccccc1NC(=O)c1cc2ccccc2cc1O: 4.08 µM
CCCCCc1nc2c(c3c1CCCC3)CCCC2: 8.44 µM
C#CCN(Cc1nc2cc(C(F)(F)F)ccc2nc1-c1ccccc1)c1ccc(OC(F)(F)F)cc1: 78.9 µM
COc1cc2cc(C(=O)CCC(=O)O)sc2cc1OC: > 100 µM
Clc1ccc(/C=C/c2cc(N3CCOCC3)c3cc(Cl)c(Cl)cc3n2)cc1: > 100 µM
COc1cc(C(=O)N2N=C(c3ccc(S(C)(=O)=O)cc3)CC2c2ccco2)cc(OC)c1OC (stereo not given): 29 µM

# input Notebook entry, TK-10 renal assay: GI50 of Cn1cc(C2=C(c3cn(CCO)c4ccccc34)C(=O)NC2=O)c2ccccc21 = ?
# output 4.58 µM

# input Notebook entry, TK-10 renal assay: GI50 of O=S(=O)(Cc1ccc(Cl)cc1Cl)c1ccc(Cl)cc1 = ?
# output 1.01 µM

###

Test system: CCRF-CEM leukemia
Measurement Notes: NCI tumour cell line growth inhibition, 48 h
Assay Endpoint: GI50

# input Data request, read-out GI50, for COc1ccc(C2CC(c3cccc(Nc4ccncc4)c3)=NN2c2ccc(Cl)cc2)cc1 (centres undefined)
# output 2.5 µM

###

The molecules listed here are annotated with their TGI.
System: SNB-75 CNS
Measurement Notes: NCI tumour cell line growth inhibition, 48 h
Hi! Could you send only the number? It should be in µM, unit omitted.

The following molecules have reported results that may help.
Cc1cccc2cc3c(ccc4ccccc43)c[n+]12: 21.8
CCOc1ccc(-c2cnnn2-c2nonc2-n2cccc2)cc1: 0.527
Cc1ccc(S(=O)(=O)n2c3c(c4ccccc42)CCN2C(=O)C(S(=O)(=O)c4ccccc4)=CCC32)cc1 (stereo unspecified): 1.41

# input Data request, read-out TGI, for COC(=O)C1=C(C(=O)OC)C(Cc2ccccc2)(OO)OC1=O (stereo unspecified)
# output 49.6

# input Data request, read-out TGI, for COC(=O)C1=C(C)NC(C)=C(C(=O)OC)C1/C=C(\Cl)c1ccc(Cl)c(Cl)c1
# output 22.9

# input Data request, read-out TGI, for CCOc1ccc(Nc2nc3c(s2)C(=O)c2ccccc2C3=O)cc1
# output 24

# input Data request, read-out TGI, for CC(C)[C@H]1CC[C@H]2[C@@H](CC[C@H]3[C@](C)(CN)CCC[C@]23C)C1
# output 21.3

# input Data request, read-out TGI, for C/C=C1/CN2CCc3c([nH]c4ccccc34)[C@@H]2C[C@@H]1Cc1[nH]ccc2c1[nH]c1cc(=O)ccc12
# output 3.36

# input Data request, read-out TGI, for COC(c1cccc(C(O)(C(F)(F)F)C(F)(F)F)c1)(C(F)(F)F)C(F)(F)F
# output 32.1

# input Data request, read-out TGI, for Cc1cc(NCCCNc2ccnc3cc(Cl)ccc23)nc(N2CCN(C)CC2)n1
# output 34.4

###

Test system: UO-31 renal
Measurement Notes: NCI tumour cell line growth inhibition, 48 h
Assay Endpoint: TGI

COc1cc(C(=O)N2N=C(c3ccc(S(C)(=O)=O)cc3)CC2c2ccco2)cc(OC)c1OC (stereo not drawn): > 100 µM
O=C(CC(=O)Nc1cccc(Cl)c1)NNCC(=O)Nc1nnc(-c2ccccc2)s1: > 100 µM
O=C1c2cccnc2C(=O)C2C3C=CC(C3)C12 (stereo not drawn): 28.1 µM
CCCCCc1nc2c(c3c1CCCC3)CCCC2: 13.9 µM
C#CCNC(=O)NCCCC(NC(C)=O)C(=O)NCc1ccccc1 (stereo not drawn): > 100 µM

# input Data request, read-out TGI, for O=C1N(c2ccccc2)C2(c3ccccc3)CC3CCCC13S2 (stereo not drawn)
# output > 100 µM

# input Data request, read-out TGI, for Cc1c(C#N)c2ccccc2c2nc3ccccc3n12
# output > 100 µM

# input Data request, read-out TGI, for Nc1nc2sc3ccccc3c(=O)n2n1
# output > 100 µM

# input Data request, read-out TGI, for N/C(=N\S(=O)(=O)c1cccc2nsnc12)Nc1ccc(Cl)cc1
# output > 100 µM

# input Data request, read-out TGI, for COC(c1cccc(C(O)(C(F)(F)F)C(F)(F)F)c1)(C(F)(F)F)C(F)(F)F
# output 34.2 µM

# input Data request, read-out TGI, for Nc1ccc2nc(NCc3ccc(F)cc3)cnc2c1
# output > 100 µM

# input Data request, read-out TGI, for O=C(CCC(=O)Nc1cccc(Cl)c1)CC(=O)c1ccc(F)cc1
# output > 100 µM

# input Data request, read-out TGI, for CC1(Cl)CC2OC3(Br)C=CC(C)(O)C2(CC1Br)C3(C)C (stereo not drawn)
# output > 100 µM

# input Data request, read-out TGI, for C1=Nc2ccc(cc2)N=Cc2ccc(cc2)OCc2cccc(n2)COc2ccc1cc2
# output > 100 µM

# input Data request, read-out TGI, for Cc1noc2cccc(OCc3ccccc3)c12
# output > 100 µM

# input Data request, read-out TGI, for CCCCCCCC(=O)NCC(O)CNC(=O)CCCCCCC
# output > 100 µM

# input Data request, read-out TGI, for CCCCOc1ccc(NC(=O)n2nc(N)c3ccccc32)cc1
# output > 100 µM

# input Data request, read-out TGI, for C=C1[C@H](OC(=O)C(C)C)[C@]23CC4(O)[C@@H]5[C@@]6(C)CCC[C@]57C([C@@H]2C[C@@]1(O)[C@H](O)[C@@H]73)N4C6
# output > 100 µM

# input Data request, read-out TGI, for O=S(=O)(O)CCCC1S(=O)(=O)OCCOS1(=O)=O
# output > 100 µM

# input Data request, read-out TGI, for CC(C)CC[C@H](O)[C@@H](C)[C@H]1[C@@H](OC2OC(C)C(O)C(O)C2O)C[C@H]2[C@@H]3CC=C4C[C@@H](O)CC[C@]4(C)[C@H]3[C@@H](O)C[C@]12C (stereo partly drawn)
# output 21.7 µM

# input Data request, read-out TGI, for O=C(C=P(c1ccccc1)(c1ccccc1)c1ccccc1)c1cccc(-c2cccc([N+](=O)[O-])c2)c1
# output 20.3 µM

# input Data request, read-out TGI, for NC(=O)C#CC#CC#CCO
# output 3.68 µM

# input Data request, read-out TGI, for O=C1CC(c2cccc(O)c2)C2(C(=O)NC(=S)NC2=O)C(c2cccc(O)c2)C1 (stereo not drawn)
# output > 100 µM
